Origin of measurements: PubChem BioAssay AID449750

assay explanation: non-covalent RecA intein splicing inhibitors, dose response, biochemical, cell-free, fluorescence, secondary screen (AID 449750)
Activity calls are given as the source filed them. How the calls were made is not given here.
Give your call using only these classes: active, inactive

Input line: Each compound tested received a call. Report the one for `Cc1nn(-c2ccccc2)c(Cl)c1CN(C(=O)CCl)c1ccc(Cl)cc1` .
Output line: active

Input line: Called result for O=C(Nc1ccccc1)c1nnsc1S(=O)c1ccc(Cl)cc1 (centres undefined)
Output line: inactive

Input line: Would you mind telling me which call this test gave `CC1=Nc2cccc3cccc(c23)N1C` ?
Output line: inactive

Input line: Could you please tell me the result logged for `COc1ccc(C(=O)Nc2ccncc2)cc1[N+](=O)[O-]` in this assay?
Output line: inactive

Input line: How did this test come out for `COC(CNC(=O)c1ccc2c3c(onc13)-c1ccccc1C2=O)OC` ?
Output line: inactive

Input line: For `CCN(CCN(C)C)C(=O)c1ccc2c(c1NCCO)C(=O)c1ccccc1C2=O` , which call appears in the assay record?
Output line: inactive

Input line: Can you look up the reported call for COc1ccc(C2=NN(C(=O)/C=C/c3ccccc3)C(c3ccccc3)C2)c(OC(C)=O)c1 (centres undefined) for me?
Output line: active

Input line: Each compound tested received a call. Report the one for `O=c1[nH]c(CCl)nc2cc(-c3ccc(F)cc3)sc12` .
Output line: active

Input line: Please share the test call associated with CCc1ccc(C2C(C#N)=C(N)C(C#N)(C#N)C3=CCC(C(C)(C)C)CC32)cc1 (centres undefined) .
Output line: inactive

Input line: What did the test return for O=C1c2[nH]nc(-c3ccccc3O)c2C(c2cccc(Cl)c2)N1Cc1ccco1 (centres undefined) ?
Output line: inactive

Input line: How was `O=C(CN1CCN(S(=O)(=O)c2ccc(Cl)cc2)CC1)Nc1ccc2c(c1)OCO2` classified in this test?
Output line: inactive

Input line: Would you mind telling me which call this test gave CCOC(=O)/C(C#N)=C1/SC(C)C(=O)N1c1ccc(Br)cc1 (centres undefined) ?
Output line: inactive

Input line: What call does the record list for `C=CCOc1ccccc1CN(C(=O)CCl)c1ccc2c(c1)OCO2` ?
Output line: active

Input line: // outcome(item) with item = `Cc1cccc(N(Cc2ccccc2)C(=O)CCl)c1`
Output line: active

Input line: Please let me know the test result on file for `CN(CC(=O)Nc1ccc(N2CCOCC2)cc1)CC(=O)Nc1cccc(C#N)c1` .
Output line: inactive

Input line: Each compound tested received a call. Report the one for `CCN(c1ccccc1)c1cc2ccccc2c(=O)[nH]1` .
Output line: inactive

Input line: Test call, this compound: CC(C)(C)OC(=O)N1CC=C2C(C#N)=C(N)C(C#N)(C#N)C(c3cccs3)C2C1 (centres undefined)
Output line: inactive

Input line: What was the test verdict on `O=C1C(Cl)=C(N2CCC(C(=O)O)CC2)C(=O)c2ccccc21` ?
Output line: active

Input line: How did this test come out for `CC(C)C(=O)N1CCN(c2nc(-c3ccccc3)c3c(c2C#N)CCCC3)CC1` ?
Output line: active

Input line: Identify the outcome logged in this assay for the compound shown: `Cc1ccc(S(=O)(=O)N(C(=O)c2ccncc2)c2ccc(OC(=O)c3ccncc3)c3ccccc23)cc1`
Output line: active

Input line: Recorded test call requested for `Cc1sc(NC(=O)CCl)c(C(=O)c2ccccc2)c1C`
Output line: active

Input line: # fetch the recorded call for `O=[N+]([O-])C(/C=C(/Cl)[N+](=O)[O-])=C(N1CCCCC1)N1CCCCC1` here
Output line: inactive

Input line: Recorded call for `Cc1ccc(SC(=O)c2c(C)noc2-c2cc(C)on2)cc1` ?
Output line: inactive

Input line: Test call, this compound: `O=c1cc(N=Nc2ccc(Cl)cc2)[nH]c(=O)[nH]1`
Output line: inactive

Input line: Hi team, can someone confirm the assay call for `CCOC(=O)c1c(NC(=O)CCl)sc(C(=O)N(CC)CC)c1C` ?
Output line: active

Input line: Would you mind telling me which call this test gave O=C(CCl)N1N=C(c2cccs2)CC1c1ccco1 (centres undefined) ?
Output line: active

Input line: Per the assay record, what outcome was assigned to S=C1NCCC12C(=S)Nc1ccccc12 (centres undefined) ?
Output line: inactive

Input line: Recorded test call requested for COc1ccc(OC)c(C2C(C#N)=C(N)Oc3c2c(C)nn3-c2ccc(C)cc2)c1 (centres undefined)
Output line: active

Input line: What did the test return for `O=C(O)COc1cccc(/C=C2/SC(=S)N(Cc3ccccc3)C2=O)c1` ?
Output line: active

Input line: Entry `O=C1/C(=C/Nc2cccc([N+](=O)[O-])c2)CCc2ccccc21` : call = ?
Output line: inactive

Input line: Dear all, I need the recorded test outcome for `COc1ccc(S(=O)(=O)Nc2cc(SCC(=O)O)c(O)c3ccccc23)cc1` , thank you.
Output line: active

Input line: Per the records of this test, what outcome belongs to `COC1=CC(=O)C(O)=C(CCCCCCC/C=C/CCCCCCCC2=C(O)C(=O)C=C(OC)C2=O)C1=O` ?
Output line: active

Input line: What did this assay record as the result for `Cc1ccc(S(=O)(=O)N[C@@H](CCCCN)C(=O)CCl)cc1` ?
Output line: inactive

Input line: What call does the record list for `CCOc1cc(CNc2ccc3cn[nH]c3c2)ccc1OC` ?
Output line: active

Input line: Assay result, entry CS/C(=C/[N+](=O)[O-])Nc1cccc2c1C(C)CC2(C)C (centres undefined) — outcome?
Output line: inactive

Input line: // outcome(item) with item = `Cc1ccc(Cn2ncc(Cl)c(Cl)c2=O)cc1`
Output line: active

Input line: Status in this test for `CC(=O)Nc1ccc(OC(=O)c2ccco2)cc1` ?
Output line: inactive

Input line: Per the assay record, what outcome was assigned to OC(COC(c1ccc(Cl)cc1)c1ccc(Cl)cc1)CN1CCc2ccccc2C1 (centres undefined) ?
Output line: active

Input line: Outcome? `CCn1c(O)c(N=Nc2cccc(S(=O)(=O)N3CCOCC3)c2)c(=O)n(CC)c1=S`
Output line: inactive

Input line: Just curious, what result did `N#C/C(=C\c1cccc(O)c1)c1nc2ccccc2o1` get here?
Output line: inactive

Input line: Hi, sorry to bother you, what did the test record for `O=C(Nc1ccccc1)C1=C(c2ccccc2)S(=O)(=O)CCS1(=O)=O` ?
Output line: inactive

Input line: Recorded call for COC(CN(C(=O)CCl)C(C(=O)NC1CCCCC1)c1ccc(Cl)cc1)OC (centres undefined) ?
Output line: active

Input line: Dear all, I need the recorded test outcome for O=C(NC1=C(NC2CCS(=O)(=O)C2)C(=O)c2ccccc2C1=O)c1ccccc1 (centres undefined) , thank you.
Output line: active

Input line: Tell me the recorded outcome of this test for `CC1=NN(CCC#N)C(=O)/C1=C/c1ccc(N(C)C)cc1` .
Output line: active
